Consider the following sequences; for each one, report its Kd.
target: HLA-B*46:01; experiment: IEDB peptide-MHC binding, purified MHC/direct/fluorescence; filed as Kd, often an IC50 or EC50 that approximates it; bounds were set here for any values at or beyond the usual limits of such assays; conditions: source organism: Camelpox virus M-96

Field request: Kd | item: ATNDGLIKK
≥ 20 µM

Can you handle LTFLHTLYK next?
≥ 20 µM

----------
molecular target: HLA-B*07:02; assay: IEDB peptide-MHC binding, purified MHC/competitive/radioactivity; filed as Kd, often an IC50 or EC50 that approximates it; bounds were set here for any values at or beyond the usual limits of such assays; settings: source organism: SARS coronavirus Tor2
MEASURE NAME: Kd (µM)
Note: unit µM is implicit; provide only the numeric part.

Quick one: Kd for KPTTFMLKY ?
11.4

Origin of measurements: the Immune Epitope Database (IEDB)
